Overview of recorded log10 of IC50 for various molecules
tested-system: ERK2 (Homo sapiens)
Sequence (P28482 2-360 limits assumed): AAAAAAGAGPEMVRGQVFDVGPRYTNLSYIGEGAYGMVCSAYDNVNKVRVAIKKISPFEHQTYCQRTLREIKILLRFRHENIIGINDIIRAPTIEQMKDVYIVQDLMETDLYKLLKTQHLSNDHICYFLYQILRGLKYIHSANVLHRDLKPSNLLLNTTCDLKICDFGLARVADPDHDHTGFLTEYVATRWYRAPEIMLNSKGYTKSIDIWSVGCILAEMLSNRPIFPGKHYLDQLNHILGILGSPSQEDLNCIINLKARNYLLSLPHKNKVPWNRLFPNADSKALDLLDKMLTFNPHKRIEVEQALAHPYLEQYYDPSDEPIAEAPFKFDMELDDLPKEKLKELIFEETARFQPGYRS
Annotation: log10 of IC50, nM basis.

Sample answers from the record:
[
  {
    "molecule": "C[C@H](C(=O)N[C@H](CO)c1cccc(Cl)c1)N1CCn2cc(-c3nc(NC4CCOCC4)ncc3Cl)cc2C1=O [Example 13-P2]",
    "assay-result": 0.45
  },
  {
    "molecule": "Cc1cccc([C@@H](CO)NC(=O)[C@@H](C)N2CCn3cc(-c4ccnc(Nc5ccnn5C)n4)cc3C2=O)c1 [Example 18-P2]",
    "assay-result": 0.74
  },
  {
    "molecule": "Cc1cccc([C@@H](CO)NC(=O)[C@@H](C)N2CCn3cc(-c4ccnc(NC5CCOCC5)n4)cc3C2=O)c1 [Example 19-P2]",
    "assay-result": 0.83
  },
  {
    "molecule": "C[C@H](C(=O)N[C@H](CO)c1cccc(Cl)c1)N1CCc2cc(-c3nc(NC4CCOCC4)ncc3Cl)cn2C1=O [Example 16-P2]",
    "assay-result": 0.62
  },
  {
    "molecule": "Cc1cccc([C@@H](CO)NC(=O)[C@@H](C)N2CCn3cc(-c4nc(Nc5ccnn5C)ncc4C)cc3C2=O)c1 [Example 10-P2]",
    "assay-result": 0.04
  }
]

## Task What value of log10 of IC50 has been reported for the following molecule? COc1cc(F)cc([C@@H](CO)NC(=O)[C@@H](C)N2CCc3cc(-c4nc(Nc5ccnn5C)ncc4C)cn3C2=O)c1 [Example 1-P2]
## Result 0.18

## Task Can you check COc1cc(F)cc([C@@H](CO)NC(=O)[C@H](C)N2CCc3cc(-c4nc(Nc5ccnn5C)ncc4C)cn3C2=O)c1 [Example 1-P1] next?
## Result 2.91

## Task Next entry: COc1cc(F)cc([C@@H](CO)NC(=O)[C@@H](C)N2Cc3cc(-c4nc(Nc5ccnn5C)ncc4C)cn3C2=O)c1 [Example 8-P2]
## Result 1.41

## Task Further, for Cc1cccc([C@@H](CO)NC(=O)[C@@H](C)N2CCn3cc(-c4nc(NC5CCOCC5)ncc4Cl)cc3C2=O)c1 [Example 9-P2] ?
## Result 0.28

## Task What would you report for COc1cc(F)cc([C@@H](CO)NC(=O)[C@@H](C)N2CCc3cc(-c4nc(NC5CCOCC5)ncc4Cl)cn3C2=O)c1 [Example 2-P2] ?
## Result 0.23

## Task Also check COc1cc(F)cc([C@@H](CO)NC(=O)[C@H](C)N2CCn3cc(-c4nc(Nc5ccnn5C)ncc4C)cc3C2=O)c1 [Example 12-P1]
## Result 2.98

----------
tested-system: ERK1 (Homo sapiens, UniProt P27361)
Sequence (P27361 whole entry): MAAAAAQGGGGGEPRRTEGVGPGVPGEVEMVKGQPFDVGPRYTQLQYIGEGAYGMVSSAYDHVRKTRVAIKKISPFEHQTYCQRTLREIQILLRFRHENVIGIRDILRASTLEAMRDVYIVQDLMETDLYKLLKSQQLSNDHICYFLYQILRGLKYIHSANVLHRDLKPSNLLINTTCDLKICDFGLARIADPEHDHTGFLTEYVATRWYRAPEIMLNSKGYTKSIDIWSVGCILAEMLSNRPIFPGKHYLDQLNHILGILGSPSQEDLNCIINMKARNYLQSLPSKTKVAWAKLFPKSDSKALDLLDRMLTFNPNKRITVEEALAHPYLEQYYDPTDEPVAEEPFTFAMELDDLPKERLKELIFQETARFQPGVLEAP
quantity-name: IC50 (nM)
State the answer as a number, implicitly in nM.

[
  {
    "compound": "Cc1cccc([C@@H](CO)NC(=O)[C@@H](C)N2CCn3cc(-c4nc(Nc5ccnn5C)ncc4C)cc3C2=O)c1 [Example 10-P2]",
    "IC50 (nM)": 8.5
  }
]

## Task Give the measured IC50 of Cc1cccc([C@@H](CO)NC(=O)[C@@H](C)N2CCn3cc(-c4nc(NC5CCOCC5)ncc4Cl)cc3C2=O)c1 [Example 9-P2] .
## Result 9

## Task Can you handle COc1cc(F)cc([C@@H](CO)NC(=O)[C@@H](C)N2CCn3cc(-c4nc(Nc5ccnn5C)ncc4C)cc3C2=O)c1 [Example 12-P2] next?
## Result 9.4

## Task Next entry: COc1cc(F)cc([C@@H](CO)NC(=O)[C@@H](C)N2CCc3cc(-c4nc(Nc5ccnn5C)ncc4C)cn3C2=O)c1 [Example 1-P2]
## Result 7

## Task And the next one, COc1cc(F)cc([C@@H](CO)NC(=O)[C@@H](C)N2CCn3cc(-c4nc(NC5CCOCC5)ncc4C)cc3C2=O)c1 [Example 17-P2] ?
## Result 22

## Task Field entry: Cc1cccc([C@@H](CO)NC(=O)[C@@H](C)N2CCc3cc(-c4nc(NC5CCOCC5)ncc4Cl)cn3C2=O)c1 [Example 11-P2]
## Result 17

## Task What would you report for COc1cc(F)cc([C@@H](CO)NC(=O)[C@@H](C)N2CCn3cc(-c4nc(NC5CCOCC5)ncc4Cl)cc3C2=O)c1 [Example 4-P2] ?
## Result 3.8

## Task // query: COc1cc(F)cc([C@@H](CO)NC(=O)[C@@H](C)N2CCn3cc(-c4nc(NC5CCOCC5)ncc4Cl)nc3C2=O)c1 [Example 3-P2]
## Result 4.6

## Task Try this compound too: COc1cc(F)cc([C@@H](CO)NC(=O)[C@@H](C)N2CCc3cc(-c4nc(NC5CCOCC5)ncc4Cl)cn3C2=O)c1 [Example 2-P2]
## Result 4.6

----------
tested-system: UniProt P28482
The entries below are paired with their reported log10 IC50.
Scale: log10; quantity: IC50; unit before log: nM

[
  {
    "compound": "COc1cc(F)cc([C@@H](CO)NC(=O)[C@@H](C)N2CCn3cc(-c4nc(Nc5ccnn5C)ncc4C)cc3C2=O)c1 [Example 12-P2]",
    "assay-result": -0.05
  },
  {
    "compound": "COc1cc(F)cc([C@@H](CO)NC(=O)[C@@H](C)N2CCn3cc(-c4nc(N[C@@H](C)CO)ncc4Cl)nc3C2=O)c1 [Example 14-P2]",
    "assay-result": 0.69
  },
  {
    "compound": "COc1cc(F)cc([C@@H](CO)NC(=O)[C@H](C)N2CCn3cc(-c4nc(N[C@@H](C)CO)ncc4Cl)nc3C2=O)c1 [Example 14-P1]",
    "assay-result": 3.18
  },
  {
    "compound": "COc1cc(F)cc([C@@H](CO)NC(=O)[C@@H](C)N2CCn3cc(-c4nc(NC5CCOCC5)ncc4Cl)cc3C2=O)c1 [Example 4-P2]",
    "assay-result": 0.00
  },
  {
    "compound": "COc1cc(F)cc([C@@H](CO)NC(=O)[C@H](C)N2Cc3cc(-c4nc(Nc5ccnn5C)ncc4C)cn3C2=O)c1 [Example 8-P1]",
    "assay-result": 3.33
  },
  {
    "compound": "COc1cc(F)cc([C@@H](CO)NC(=O)[C@@H](C)N2CCn3cc(-c4nc(NC5CCOCC5)ncc4Cl)nc3C2=O)c1 [Example 3-P2]",
    "assay-result": 0.24
  },
  {
    "compound": "COc1cc(F)cc([C@@H](CO)NC(=O)[C@@H](C)N2CCn3cc(-c4nc(NC5CCOCC5)ncc4C)cc3C2=O)c1 [Example 17-P2]",
    "assay-result": 0.49
  },
  {
    "compound": "COc1cc(F)cc([C@@H](CO)NC(=O)[C@@H](C)N2Cc3cc(-c4nc(NC5CCOCC5)ncc4Cl)cn3C2=O)c1 [Example 6-P2]",
    "assay-result": 0.88
  }
]

## Task // lookup log10 IC50 for COc1cc(F)cc([C@@H](CO)NC(=O)[C@H](C)N2CCc3cc(-c4nc(NC5CCOCC5)ncc4Cl)cn3C2=O)c1 [Example 2-P1]
## Result 2.53
